Tested on: LOX IMVI melanoma
Assay: NCI tumour cell line growth inhibition, 48 h
REPORTED_PROPERTY: GI50

MOLECULAR_STRING: CS(=O)(=O)CCNCc1ccc(-c2ccc3ncnc(Nc4ccc(OCc5ccccc5)cc4)c3c2)o1
GI50: 4.05 µM

MOLECULAR_STRING: CC[C@@]1(c2ccccc2)C2=C(CC(C)(C)CC2=O)Nc2[nH]ncc21
GI50: > 100 µM

Here is the next item to consider.
Look up and report measured GI50 for this entry: `COc1cc2cc(Oc3ccc(NC(=O)Nc4ccc(Cl)c(C(F)(F)F)c4)cc3)c(C)nc2cc1OCCN1CCOCC1` 1.39 µM
